Value source: paper PMC3544975

Target: human PMK (Homo sapiens, UniProt Q15126)
Sequence (Q15126 1-192): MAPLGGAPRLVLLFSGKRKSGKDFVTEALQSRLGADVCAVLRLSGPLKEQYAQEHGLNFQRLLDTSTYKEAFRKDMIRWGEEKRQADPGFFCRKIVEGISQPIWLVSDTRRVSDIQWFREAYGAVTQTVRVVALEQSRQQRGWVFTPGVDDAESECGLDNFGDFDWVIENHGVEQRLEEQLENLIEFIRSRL
Assay: Fluorescence titration
Assay type: binding

>  <molecule smiles>
O=c1cc(-c2ccc(O)c(O)c2)oc2cc(O)cc(O)c12

>  <Kd>
61 µM

$$$$
